Values from ChEMBL document CHEMBL1221327

Assay system Cathepsin B (Homo sapiens, UniProt P07858); read-out recorded as pKi.
Lab note: report pKi as minus log10 of the concentration in molar units, number only.

stdin: # query: pKi | item CCCCCCS[S+]([O-])CCCCCC (stereo unspecified) | system: Cathepsin B (Homo sapiens, UniProt P07858)
stdout: 5.23

stdin: How about this compound: C=CCS[S+]([O-])CC=C (stereo unspecified)
stdout: 5.07

stdin: How about this compound: [O-][S+](Cc1ccccc1)SCc1ccccc1 (stereo unspecified)
stdout: 5.11

stdin: How about this compound: CC(C)CCS[S+]([O-])CCC(C)C (stereo unspecified)
stdout: 4.72

stdin: How about this compound: CCCS[S+]([O-])CCC (stereo unspecified)
stdout: 4.81

* * *

- target-or-system: Procathepsin L (Homo sapiens)
- Sequence (P07711 whole entry): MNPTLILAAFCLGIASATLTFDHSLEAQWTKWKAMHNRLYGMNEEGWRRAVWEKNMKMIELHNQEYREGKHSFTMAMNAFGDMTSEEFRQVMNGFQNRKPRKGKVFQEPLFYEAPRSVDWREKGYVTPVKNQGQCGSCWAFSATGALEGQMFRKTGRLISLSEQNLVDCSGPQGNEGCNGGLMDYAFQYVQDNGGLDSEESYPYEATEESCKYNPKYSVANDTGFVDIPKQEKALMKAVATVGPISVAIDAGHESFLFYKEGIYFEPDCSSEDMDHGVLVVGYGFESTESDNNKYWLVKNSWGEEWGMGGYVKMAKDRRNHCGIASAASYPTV
quantity-kind: Ki (µM)
The figure you give is taken to be in µM; do not add the unit.

stdin: # Ki lookup, item CCCS[S+]([O-])CCC (configuration not stated)
stdout: 11.3

stdin: How about this compound: [O-][S+](Cc1ccccc1)SCc1ccccc1 (configuration not stated)
stdout: 31.7

stdin: How about this compound: CCCCCCS[S+]([O-])CCCCCC (configuration not stated)
stdout: 10.4

stdin: How about this compound: C=CCS[S+]([O-])CC=C (configuration not stated)
stdout: 9.3

stdin: How about this compound: CC(C)CCS[S+]([O-])CCC(C)C (configuration not stated)
stdout: 3.4

* * *

- System: Plasmodium falciparum
- run-description: Antiparasitic activity against Plasmodium falciparum
- Type: functional, organism-based
quantity-kind: pIC50
Lab note: report pIC50 as minus log10 of the concentration in molar units, number only.

stdin: # pIC50 lookup, item CCCS[S+]([O-])CCC (stereo not drawn)
stdout: 4.11

stdin: How about this compound: CCCCCCS[S+]([O-])CCCCCC (stereo not drawn)
stdout: 4.96

stdin: How about this compound: CC(C)CCS[S+]([O-])CCC(C)C (stereo not drawn)
stdout: 4.26

stdin: How about this compound: CC(C)(C)S[S+]([O-])C(C)(C)C (stereo not drawn)
stdout: 4.14

stdin: How about this compound: [O-][S+](Cc1ccccc1)SCc1ccccc1 (stereo not drawn)
stdout: 4.52

stdin: How about this compound: [O-][S+](SC1CCCCC1)C1CCCCC1 (stereo not drawn)
stdout: 4.46

stdin: How about this compound: C=CCS[S+]([O-])CC=C (stereo not drawn)
stdout: 5.28

stdin: How about this compound: CC(C)(C)S[S+]([O-])Cc1ccccc1 (stereo not drawn)
stdout: 4.28

* * *

Exercise: state measured log10(Ki) for each of the compounds provided.
- target-or-system: Rhodesain (Trypanosoma brucei rhodesiense, UniProt Q95PM0)
- Sequence (Q95PM0 whole entry): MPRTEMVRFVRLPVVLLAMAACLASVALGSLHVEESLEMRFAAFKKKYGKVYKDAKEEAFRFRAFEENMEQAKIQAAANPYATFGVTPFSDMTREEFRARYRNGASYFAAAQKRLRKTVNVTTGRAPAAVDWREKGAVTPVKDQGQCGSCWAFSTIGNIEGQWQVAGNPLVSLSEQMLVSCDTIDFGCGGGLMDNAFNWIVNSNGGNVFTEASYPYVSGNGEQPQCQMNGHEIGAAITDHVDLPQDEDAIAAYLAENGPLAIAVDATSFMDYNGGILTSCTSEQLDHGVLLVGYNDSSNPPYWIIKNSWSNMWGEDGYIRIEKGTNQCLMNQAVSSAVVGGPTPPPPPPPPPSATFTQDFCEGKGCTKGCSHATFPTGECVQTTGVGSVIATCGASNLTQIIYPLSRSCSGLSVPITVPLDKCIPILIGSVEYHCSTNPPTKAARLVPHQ
For clarity, the numbers are log10 values of Ki expressed in µM.

stdin: # query: log10(Ki) | item CC(C)CCS[S+]([O-])CCC(C)C (stereo not drawn) | system: Rhodesain (Trypanosoma brucei rhodesiense, UniProt Q95PM0)
stdout: -0.44

stdin: How about this compound: [O-][S+](Cc1ccccc1)SCc1ccccc1 (stereo not drawn)
stdout: 0.36

stdin: How about this compound: C=CCS[S+]([O-])CC=C (stereo not drawn)
stdout: 0.73

stdin: How about this compound: CCCS[S+]([O-])CCC (stereo not drawn)
stdout: 0.65

stdin: How about this compound: CCCCCCS[S+]([O-])CCCCCC (stereo not drawn)
stdout: 0.00

* * *

- run-description: Inhibition of Plasmodium falciparum falcipain-2
Exercise: state measured log10(Ki) for each of the compounds provided.
For clarity, the numbers are log10 values of Ki expressed in µM.

stdin: # log10(Ki) lookup, item CCCS[S+]([O-])CCC (configuration not stated)
stdout: 1.42

stdin: How about this compound: CC(C)CCS[S+]([O-])CCC(C)C (configuration not stated)
stdout: 0.48

stdin: How about this compound: C=CCS[S+]([O-])CC=C (configuration not stated)
stdout: 0.02

stdin: How about this compound: [O-][S+](Cc1ccccc1)SCc1ccccc1 (configuration not stated)
stdout: 0.65

stdin: How about this compound: CCCCCCS[S+]([O-])CCCCCC (configuration not stated)
stdout: 0.26

* * *

Assay system Rhodesain (Trypanosoma brucei rhodesiense); read-out recorded as Ki.

stdin: # Ki lookup, item CC(C)(C)S[S+]([O-])Cc1ccccc1 (stereo not drawn)
stdout: > 100 µM

stdin: How about this compound: CC(C)(C)S[S+]([O-])C(C)(C)C (stereo not drawn)
stdout: > 100 µM

stdin: How about this compound: [O-][S+](SC1CCCCC1)C1CCCCC1 (stereo not drawn)
stdout: > 100 µM
